Source: the supplement of paper PMC10037445

Tested on: RAW-Dual
Experiment: NF-kB SEAP reporter activity, fold change vs agonist alone; cytotoxicity flag (confluency mask): not cytotoxic; higher = enhanced NF-kB activity
Details: agonist: LPS (TLR4) 0.1 ug/mL
In all, about 2,900 compounds were measured (“NF-kB SEAP reporter activity, fold change vs agonist alone”: median about 0.99, highest 2% from about 2.6 on). The entries come from a sample that favours the highest values as a whole.

COMPOUND	TESTED TARGET	NF-kB SEAP reporter activity
COc1ccc(CCCOC(Cn2ccnc2)c2ccc(OC)cc2)cc1.Cl (configuration not stated) (library stock concentration (final ~1000-fold dilution): 10 mM)	RAW-Dual	0.82
CC(C)(C)NCC(O)COc1ccccc1C1CCCC1.CC(C)(C)NCC(O)COc1ccccc1C1CCCC1.O=S(=O)(O)O (configuration not stated) (library stock concentration (final ~1000-fold dilution): 10 mM)	RAW-Dual	0.844
O=C(Nc1ccccc1C(=O)O)c1cc(S(=O)(=O)c2ccccc2)ccc1Cl (library stock concentration (final ~1000-fold dilution): 10 mM)	RAW-Dual	1.19
CCCC(NC1CCc2cc(F)cc(F)c2C1)C(=O)Nc1cn(C(C)(C)CNCC(C)(C)C)cn1 (configuration not stated) (library stock concentration (final ~1000-fold dilution): 10 mM)	RAW-Dual	0.636
CS(=O)c1ccc(-c2nc(-c3ccc(F)cc3)c(-c3ccncc3)[nH]2)cc1 (configuration not stated) (library stock concentration (final ~1000-fold dilution): 10 mM)	RAW-Dual	2.27
NNC(=O)c1ccncc1 (library stock concentration (final ~1000-fold dilution): 10 mM)	RAW-Dual	1.22
O=C(O)CSc1cc(NS(=O)(=O)c2ccc(Br)cc2)c2ccccc2c1O (library stock concentration (final ~1000-fold dilution): 10 mM)	RAW-Dual	3.16
O=C(Oc1cc(S(=O)(=O)c2ccccc2)ccc1[N+](=O)[O-])c1ccc(Cl)cc1 (library stock concentration (final ~1000-fold dilution): 10 mM)	RAW-Dual	5.2
C[C@H]1[C@@H](O)O[C@@H]2OC3(C)CC[C@H]4[C@H](C)CC[C@@H]1[C@@]24OO3 (library stock concentration (final ~1000-fold dilution): 10 mM)	RAW-Dual	3.41
O=C(O)CSc1nnc(Br)n1-c1ccc(C2CC2)c2ccccc12 (library stock concentration (final ~1000-fold dilution): 10 mM)	RAW-Dual	1.32
O=C(C=Cn1cnc(-c2cc(C(F)(F)F)cc(C(F)(F)F)c2)n1)NNc1cnccn1 (library stock concentration (final ~1000-fold dilution): 10 mM)	RAW-Dual	0.255
Cc1c(-c2ccc(C(N)=O)c3[nH]c4cc(C(C)(C)O)ccc4c23)cccc1-n1cnc2ccccc2c1=O (library stock concentration (final ~1000-fold dilution): 10 mM)	RAW-Dual	1.25
CCCOc1ccc(CCc2nc3cc(-c4c(C)noc4C)ccc3n2CCN2CCOCC2)cc1.Cl (library stock concentration (final ~1000-fold dilution): 10 mM)	RAW-Dual	2.48
CC(C)(C)c1[nH]cnc1C=c1[nH]c(=O)c(=Cc2ccccc2)[nH]c1=O (library stock concentration (final ~1000-fold dilution): 10 mM)	RAW-Dual	6.1
CC(C(=O)O)c1ccc(C(=O)c2cccs2)cc1 (configuration not stated) (library stock concentration (final ~1000-fold dilution): 10 mM)	RAW-Dual	1.19
O=C(Oc1coc(CSc2ncccn2)cc1=O)c1ccc([N+](=O)[O-])cc1 (library stock concentration (final ~1000-fold dilution): 10 mM)	RAW-Dual	1.26
C=C(CC(=O)OCCCCCCCC)C(=O)O (library stock concentration (final ~1000-fold dilution): 10 mM)	RAW-Dual	0.76
O=C(N/N=C/c1c(O)ccc2ccccc12)c1ccncc1 (library stock concentration (final ~1000-fold dilution): 10 mM)	RAW-Dual	2.18
CC1(N)CCN(c2cnc(-c3cccc(Cl)c3Cl)c(N)n2)CC1.Cl (library stock concentration (final ~1000-fold dilution): 10 mM)	RAW-Dual	1.2
CC(=O)O.NCc1ccc(S(N)(=O)=O)cc1 (library stock concentration (final ~1000-fold dilution): 10 mM)	RAW-Dual	1.04
CC1OC(OC2C(O)C(OCCc3ccc(O)c(O)c3)OC(CO)C2OC(=O)/C=C/c2ccc(O)c(O)c2)C(O)C(O)C1O (configuration not stated) (library stock concentration (final ~1000-fold dilution): 10 mM)	RAW-Dual	1.21
COc1ccc(-c2oc3c(CC=C(C)C)c(OC4OC(CO)C(O)C(O)C4O)cc(O)c3c(=O)c2OC2OC(C)C(O)C(O)C2O)cc1 (configuration not stated) (library stock concentration (final ~1000-fold dilution): 10 mM)	RAW-Dual	1.57
